Values were extracted from patent US12291518B2.

target-or-test-system: THR beta-LBD (Homo sapiens, UniProt P10828)
Construct: THR beta-LBD (the final concentration is 0.5 nM) was added to the 384-well assay plate; purchased Invitrogen PV4686
Sequence (P10828 217-461 limits assumed): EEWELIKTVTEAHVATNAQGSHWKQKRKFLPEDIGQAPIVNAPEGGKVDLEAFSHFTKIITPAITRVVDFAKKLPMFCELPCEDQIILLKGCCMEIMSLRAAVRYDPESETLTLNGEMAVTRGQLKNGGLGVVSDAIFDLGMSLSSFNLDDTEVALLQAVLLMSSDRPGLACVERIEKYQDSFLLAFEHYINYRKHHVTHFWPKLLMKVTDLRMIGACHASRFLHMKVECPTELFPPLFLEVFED
measurement-description: THR-β Coactivator Peptide Recruitment Assay (LanthaScreen TR-FRET)
Type: biochemical
condition-context: TR-FRET coactivator recruitment, THR beta-LBD 0.5 nM
Experimental: A time-resolved FRET (TR-FRET) assay was used to test representative compounds of the application. THR-β Coactivator Peptide Recruitment Assay were conducted by using Invitrogen's LanthaScreen™ TR-FRET Thyroid Receptor beta Assay Kit (Catalog no. PV4686). […] After a gentle mix and incubation at room temperature for 2 h, the signal was read on the EnVision Multilabel Plate Reader at wavelengths of 520 nm and 495 nm. […]

{"compound": "O=C(N[C@H]1C[C@H](O)C1)c1cc(Oc2c(Cl)cc(-n3nc(C(F)F)c(=O)[nH]c3=O)cc2Cl)ccc1O", "target-or-test-system": "THR beta-LBD (Homo sapiens, UniProt P10828)", "THRβ Emax": "B (75~90)"}
{"compound": "O=C(NC1CCC1)c1cc(Oc2c(Cl)cc(-n3nc(C(F)F)c(=O)[nH]c3=O)cc2Cl)ccc1O", "target-or-test-system": "THR beta-LBD (Homo sapiens, UniProt P10828)", "THRβ Emax": "A (90~110)"}
{"compound": "O=c1[nH]c(=O)n(-c2cc(Cl)c(Oc3cc(S(=O)(=O)N[C@H]4C[C@@H](O)C4)c(O)cn3)c(Cl)c2)nc1C(F)F", "target-or-test-system": "THR beta-LBD (Homo sapiens, UniProt P10828)", "THRβ Emax": "A (90~110)"}
{"compound": "CS(=O)(=O)[C@H]1C[C@H](NS(=O)(=O)c2cc(Oc3c(Cl)cc(-n4nc(C(F)F)c(=O)[nH]c4=O)cc3Cl)ccc2O)C1", "target-or-test-system": "THR beta-LBD (Homo sapiens, UniProt P10828)", "THRβ Emax": "B (75~90)"}
{"compound": "O=c1[nH]c(=O)n(-c2cc(Cl)c(Oc3ccc(O)c(S(=O)(=O)NC4CC4)c3)c(Cl)c2)nc1C(F)F", "target-or-test-system": "THR beta-LBD (Homo sapiens, UniProt P10828)", "THRβ Emax": "A (90~110)"}
{"compound": "O=C(C1CC1)N1CC(NS(=O)(=O)c2cc(Oc3c(Cl)cc(-n4nc(C(F)F)c(=O)[nH]c4=O)cc3Cl)ccc2O)C1", "target-or-test-system": "THR beta-LBD (Homo sapiens, UniProt P10828)", "THRβ Emax": "B (75~90)"}
{"compound": "O=c1[nH]c(=O)n(-c2cc(Cl)c(Oc3ccc(O)c(S(=O)(=O)NC4C[S+]([O-])C4)c3)c(Cl)c2)nc1C(F)F (stereo not shown)", "target-or-test-system": "THR beta-LBD (Homo sapiens, UniProt P10828)", "THRβ Emax": "A (90~110)"}
{"compound": "O=c1[nH]c(=O)n(-c2cc(Cl)c(Cc3ccc(O)c(S(=O)(=O)N[C@H]4C[C@H](O)C4)c3)c(Cl)c2)nc1C(F)F", "target-or-test-system": "THR beta-LBD (Homo sapiens, UniProt P10828)", "THRβ Emax": "A (90~110)"}
{"compound": "O=c1[nH]c(=O)n(-c2cc(Cl)c(Oc3ccc(O)c(S(=O)(=O)N[C@H]4CCN(S(=O)(=O)C5CC5)C4)c3)c(Cl)c2)nc1C(F)F", "target-or-test-system": "THR beta-LBD (Homo sapiens, UniProt P10828)", "THRβ Emax": "C (<75)"}
{"compound": "CNC(=O)[C@H]1C[C@H](NS(=O)(=O)c2cc(Oc3c(Cl)cc(-n4nc(C(F)F)c(=O)[nH]c4=O)cc3Cl)ccc2O)C1", "target-or-test-system": "THR beta-LBD (Homo sapiens, UniProt P10828)", "THRβ Emax": "B (75~90)"}
{"compound": "O=c1[nH]c(=O)n(-c2cc(Cl)c(Oc3ccc(O)c(S(=O)(=O)N[C@H]4C[C@H](O)C4)c3)c(Cl)c2)nc1C(F)F", "target-or-test-system": "THR beta-LBD (Homo sapiens, UniProt P10828)", "THRβ Emax": "A (90~110)"}
{"compound": "O=C(NC12CC(NS(=O)(=O)c3cc(Oc4c(Cl)cc(-n5nc(C(F)F)c(=O)[nH]c5=O)cc4Cl)ccc3O)(C1)C2)C1CC1", "target-or-test-system": "THR beta-LBD (Homo sapiens, UniProt P10828)", "THRβ Emax": "C (<75)"}
{"compound": "Cc1nn(-c2cc(Cl)c(Oc3cc(S(=O)(=O)N[C@@H]4CCOC4)c(O)cn3)c(Cl)c2)c(=O)[nH]c1=O", "target-or-test-system": "THR beta-LBD (Homo sapiens, UniProt P10828)", "THRβ Emax": "B (75~90)"}
